Consider the following compounds; for each one, report its TGI.
system: IGROV1 ovarian; assay: NCI tumour cell line growth inhibition, 48 h

Query: Endpoint output: TGI of Clc1nc2c(-c3cccs3)ncnc2n1Cc1ccccc1 . Value?
Reply: > 100 µM

Query: Quick one: TGI of CCN(CC)CCCNC(=O)Cc1ccccc1Nc1c(Cl)cccc1Cl ?
Reply: 36.5 µM

Query: Param item = CC(C)(C)OC(=O)N1N=NC2C3CC(=O)C(O3)C21 (stereo not drawn) ; retrieve measured TGI.
Reply: > 100 µM

Query: Reported TGI, compound CCNCCNc1cc(-c2ccc(F)cc2)c(C#N)c2nc3ccccc3n12 : ____
Reply: 22.8 µM

Query: Given the entry Cc1[nH]c2ccccc2c1C=Nc1ccc(Oc2ccccc2)cc1 , report its measured TGI.
Reply: 28.3 µM

Query: Please give the measured TGI for this compound: Cc1cc(C)nc(NS(=O)(=O)c2ccc(NC(=O)c3cccc4cc5ccccc5nc34)cc2)n1
Reply: > 100 µM

Query: Param item = CC1=C(C(=O)OC(C)C)C(c2ccccc2[N+](=O)[O-])C(C(=O)OC(CO[N+](=O)[O-])CO[N+](=O)[O-])=C(C)N1 (stereo not drawn) ; retrieve measured TGI.
Reply: 27.9 µM

Query: Which TGI reading was recorded for the compound O=Nc1c(O)ccc2ccccc12 ?
Reply: 5.78 µM

Query: Quick check: TGI of CC(Cc1ccc(O)c(O)c1)C(C)Cc1ccc(O)c(O)c1 (stereo not drawn) ?
Reply: 33.6 µM

Query: I would be grateful if you could share the reported TGI for COc1cc(C2C(C#N)=C(N)OC3=C2C(=O)c2ccccc2C3=O)cc(OC)c1OC (stereo not drawn) .
Reply: 19.2 µM

Query: Quick check: TGI of CCC1(OC(C)=O)C(=O)OCc2c1cc1n(c2=O)Cc2cc3ccccc3nc2-1 (stereo not drawn) ?
Reply: > 100 µM

Query: Would you mind telling me what TGI value was observed for Cc1n[nH]c(=O)n1N=C(c1ccccc1)c1ccccc1 ?
Reply: > 100 µM

Query: Entry CCc1cccc(C)c1NC(=O)NS(=O)(=O)c1ccc(C)cc1 : reported TGI = ?
Reply: > 100 µM

Query: Entry under review: CCOC(=O)c1nc2cc(C(F)(F)F)ccc2nc1Nc1ccc(Cl)c(Cl)c1 . Reported TGI?
Reply: > 100 µM

Query: Sample COc1ccc(C(=O)C=C2NCCN2)cc1 — what was its TGI?
Reply: > 100 µM

Query: What value of TGI has been recorded for this entry: N#Cc1nc(-c2ccccc2)oc1S(=O)(=O)N1CCOCC1
Reply: 23.2 µM

Query: // lookup TGI for O=C(/C=C/c1ccc(Cl)c(Cl)c1)Oc1ccc(/C=C2\CCCCC2=O)cc1
Reply: > 100 µM

Query: Please look up its TGI: CN(Cc1cnc2nc(N)nc(N)c2n1)c1ccc(C(=O)NC(CCC(=O)O)C(=O)O)cc1 (stereo not drawn)
Reply: > 100 µM

Query: Give the measured TGI of COc1ccc(NC2=NCCO2)c2ccccc12 .
Reply: > 10 µM

Query: May I ask what TGI has been recorded for O=c1c([Se]c2coc3ccccc3c2=O)coc2ccccc12 ?
Reply: 22.3 µM

Query: So what does the record say about TGI for CC[C@H](C)[C@H](NC(=O)C12C3C4C1C1C2C3C41NC(C)=O)C(=O)N(C)[C@H](C[C@@H](OC(C)=O)c1nc(C(=O)N[C@@H](Cc2ccccc2)C[C@H](C)C(=O)OC)cs1)C(C)C (stereo partly drawn) ?
Reply: > 14.3 µM

Query: Using the record for CSCCC(NC(c1ccccc1)c1ccccc1)[P+](=O)O (stereo not drawn) , report its TGI.
Reply: > 100 µM

Query: What does the record list as TGI for COc1cc2c(cc1C)n(O)c(C)c(C(=O)C/C(=N/NC(=O)C[N+](C)(C)C)C(=O)Nc1cccc(Cl)c1C)[n+]2=O ?
Reply: > 100 µM

Query: Item under review: CC(=O)N1CC(F)(F)c2c(Sc3ncc(N4CCC5(CC4)COC[C@H]5N)nc3N)cccc21 . Reported TGI?
Reply: 86.9 µM

Query: What value of TGI has been recorded for this entry: Cn1cnc([N+](=O)[O-])c1Sc1ncnc2c1ncn2C1OC(CO)C(O)C1O (stereo not drawn)
Reply: > 100 µM

Query: Given the compound C#CCOC(=O)c1ccccc1OC(C)=O , what is its reported TGI?
Reply: > 100 µM

Query: What does the record list as TGI for Oc1ccc2ccccc2c1N=Nc1ccccc1 ?
Reply: > 100 µM

Query: Which TGI is reported for this compound? CN(/N=C\c1ccc2ccccc2c1)C1=NCCCCN1
Reply: > 100 µM

Query: I have this compound here, COc1ccc(C)cc1NC(=S)N/N=C/c1ccc(SC)cc1 , and I need its recorded TGI.
Reply: > 100 µM

Query: Find the recorded TGI belonging to Fc1ccc(C(OCCN2CCC3CCC(C2)N3Cc2cc3ccccc3[nH]2)c2ccc(F)cc2)cc1 (stereo not drawn) and report it.
Reply: 2.79 µM

Query: Give its TGI value. Item: Cc1ccc(S(=O)(=O)N/N=C2\C=C[C@]3(CC2)C(=O)N(C)c2ccccc23)cc1
Reply: > 100 µM

Query: Look up TGI for this compound: Cc1nc2c(-c3ccccc3)[nH]c(C)c2c(=O)o1
Reply: > 100 µM

Query: For O=C(/C=C/c1cccc(Cl)c1)c1ccc(Cl)cc1Cl , what is its reported TGI?
Reply: > 50 µM

Query: Which TGI reading was recorded for the compound CC(=O)Oc1c(OC(C)=O)c(-c2ccc(O)c(O)c2)c(O)c(O)c1-c1ccc(O)cc1 ?
Reply: > 100 µM

Query: Give its TGI value. Item: CC1OC(=O)c2ccccc2NC1=O (stereo not drawn)
Reply: > 100 µM

Query: Using the record for Cc1ccc(Nc2ccc(Nc3ccc(C)cc3)c3c2C(=O)c2c(O)ccc(O)c2C3=O)cc1 , report its TGI.
Reply: > 100 µM

Query: Field request: TGI | item: COc1cc(C2C(C(=O)Nc3ccccc3)=C(C)NC(C)=C2C(=O)Nc2ccccc2)ccc1O
Reply: > 100 µM

Query: Returns the measured TGI for the input compound. Input: CCC(=O)NCCc1c[nH]c2ccc(OC)cc12
Reply: > 100 µM

Query: What value of TGI has been reported for the following compound? O=c1cccccc1NCCCCNc1cccccc1=O
Reply: > 100 µM

Query: Entry CCNCC(O)c1ccc(N)c([N+](=O)[O-])c1 (stereo not drawn) : reported TGI = ?
Reply: > 100 µM

Query: Look at this compound and give its reported TGI. O=C(C1OC1c1ccc([N+](=O)[O-])cc1)C12CC3CC(CC(C3)C1)C2 (stereo not drawn)
Reply: 34.6 µM

Query: Tell me the measured TGI of Oc1ccccc1-n1c(-c2ccccc2)ccc1-c1ccccc1 , please.
Reply: 19.4 µM

Query: State the recorded TGI for this entry: COc1ccc(C2S/C(=C\c3ccc(OC)cc3OC)C(=O)N2NC(=O)Cc2ccccc2)cc1 (stereo not drawn)
Reply: > 100 µM

----------
tested on: RPMI-8226 leukemia; test: NCI tumour cell line growth inhibition, 48 h
metric name: TGI

Query: Record request: TGI value, item C[N+]1(C)CN(c2ccccc2)C2(CCN(CCCC(=O)c3cccs3)CC2)C1=O
Reply: > 100 µM

Query: Give its TGI value. Item: CC(=O)Nc1ccc(-c2nnc(SCC(=O)Nc3ccc(C)cc3)o2)cc1
Reply: 74.7 µM

Query: Tell me the measured TGI of Cc1cc(=Nc2ccc3c(c2)c(N)cc(C)[n+]3C)nc(N)n1C , please.
Reply: > 100 µM

Query: Tell me the measured TGI of CCOC(=O)c1c(SCCO)n(-c2ccccc2)c(=S)n(-c2ccccc2)c1=O , please.
Reply: > 100 µM

Query: Reported TGI for O=C(CCN1CCCC1)Nc1ccc2c(NCCCc3ccccc3)c3ccccc3nc2c1 : what is it?
Reply: 3.63 µM

Query: Any idea what TGI was measured for CN(Cc1cnc2nc(N)nc(N)c2n1)c1ccc(C(=O)NC(CCC(=O)O)C(=O)O)cc1 (stereo not given) ?
Reply: > 100 µM

Query: # query: TGI of entry CC(C)(C)OC(=O)N1N=NC2C3CC(=O)C(O3)C21 (stereo not given)
Reply: > 100 µM

Query: Which TGI value belongs to Cn1c(=O)n(CC(Br)CBr)c(=O)n(CC(Br)CBr)c1=O (stereo not given) ?
Reply: 63.8 µM

Query: Which value of TGI has been reported for COc1ccccc1-n1c(SCc2cc(OC)c(OC)c(OC)c2)nc2ccc(Cl)cc2c1=O in the records?
Reply: > 100 µM

Query: Form field: reported TGI of COc1ccc2c(c1)OC13Oc4cc(OC)ccc4C=C1CCCC3=C2
Reply: > 100 µM

----------
system: SF-268 CNS; test: NCI tumour cell line growth inhibition, 48 h; in the data active = GI50 below about 0.43 µM; inactive = the rest
Respond using exactly one of the listed classes: active, inactive

Query: Dear colleague, could you share the recorded outcome for COc1ccc2c3c(c(OCCCN(C)C)nc2c1)-c1ccc(Cl)cc1C3=O when you have a moment?
Reply: inactive

Query: Returns: the outcome recorded for Cn1ccnc1C(=O)/C=C/c1ccc(C(=O)Nc2nc3ccccc3[nH]2)cc1 in this assay.
Reply: inactive

Query: Please indicate how the test categorized N#Cc1nc(-c2ccccc2)oc1S(=O)(=O)N1CCOCC1 .
Reply: inactive

Query: Per the records of this test, what outcome belongs to COc1ccc([C@H]2O[C@@H](CO)C[C@]2(O)c2ccc(OC)cc2)cc1 ?
Reply: inactive

Query: Recorded call for CCS/C(Nc1ccccc1)=C(\C#N)C(=O)Nc1ccc(OC)cc1 ?
Reply: inactive

Query: Dear colleague, could you share the recorded outcome for COc1ccc(-c2ccc(-c3ccc(C(=N)N)cn3)s2)cc1Cl when you have a moment?
Reply: inactive

Query: For FC(F)(F)c1ccc(-c2cnc(Br)nc2NC2CCCCCC2)cc1 , what call appears in the results of this test?
Reply: inactive

Query: Hi team, can someone confirm the assay call for C=C(C)[C@H]1CC/C(C)=C/CCC(C)C(=O)CC/C(CO)=C\[C@@H]1O (stereo partly drawn) ?
Reply: inactive

Query: Dear all, I need the recorded test outcome for CC(=O)Oc1c(OC(C)=O)c(-c2ccc(O)c(O)c2)c(O)c(O)c1-c1ccc(O)cc1 , thank you.
Reply: inactive

Query: Hello, I am checking results. What call was entered for COc1cc(C2C(C#N)=C(N)OC3=C2C(=O)c2ccccc2C3=O)cc(OC)c1OC (stereo not drawn) ?
Reply: inactive

Query: So what was the verdict on O=C(/C=C/c1ccco1)Nc1ncc(Cc2ccc(F)cc2)s1 in this test?
Reply: active

Query: Could you please tell me the result logged for COc1ccc2c(c1)OC13Oc4cc(OC)ccc4C=C1CCCC3=C2 in this assay?
Reply: inactive

Query: I'd appreciate the recorded outcome for Oc1ccccc1-n1c(-c2ccccc2)ccc1-c1ccccc1 from this test.
Reply: inactive

Recorded values, source PubChem BioAssay (NCI).
